- Target system: glucocorticoid receptor (estrogen-primed rabbit thymus) (Oryctolagus cuniculus, UniProt P59667)
- Construct: preparation of cytosols for the progesterone and glucocorticoid receptor assays; from tissue; host or cells: thymus of estradiol-primed immature female New Zealand White rabbits (cytosol)
- Sequence (P59667 whole entry): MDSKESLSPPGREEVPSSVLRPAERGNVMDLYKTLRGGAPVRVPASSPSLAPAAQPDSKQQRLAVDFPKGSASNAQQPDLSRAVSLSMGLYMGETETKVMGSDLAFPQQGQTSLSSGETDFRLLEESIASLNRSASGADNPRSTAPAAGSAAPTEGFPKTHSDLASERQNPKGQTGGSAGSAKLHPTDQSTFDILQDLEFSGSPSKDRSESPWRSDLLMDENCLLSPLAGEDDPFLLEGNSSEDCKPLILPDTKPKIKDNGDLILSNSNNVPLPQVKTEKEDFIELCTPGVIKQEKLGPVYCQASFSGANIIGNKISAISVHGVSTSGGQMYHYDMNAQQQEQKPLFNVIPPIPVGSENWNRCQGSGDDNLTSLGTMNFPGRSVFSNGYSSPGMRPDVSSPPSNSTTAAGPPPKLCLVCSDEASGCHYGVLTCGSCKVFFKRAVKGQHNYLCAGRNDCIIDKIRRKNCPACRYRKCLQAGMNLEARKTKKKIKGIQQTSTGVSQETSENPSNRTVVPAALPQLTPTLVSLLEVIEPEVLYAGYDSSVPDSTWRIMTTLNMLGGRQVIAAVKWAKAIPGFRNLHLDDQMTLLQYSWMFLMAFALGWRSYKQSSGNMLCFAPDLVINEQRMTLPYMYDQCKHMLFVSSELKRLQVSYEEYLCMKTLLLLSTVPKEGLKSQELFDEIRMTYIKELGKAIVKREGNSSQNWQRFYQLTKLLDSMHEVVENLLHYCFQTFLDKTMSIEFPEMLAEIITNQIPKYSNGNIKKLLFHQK
- Assay: Relative binding affinity, glucocorticoid receptor
- Condition context: rabbit thymus; versus CDB-2914 (69B) where stated
Property measured: binding affinity for the glucocorticoid receptor, in words

compound="C=COCC(=O)[C@@]1(OC(C)=O)CCC2C3CCC4=CC(=O)CCC4=C3C(c3ccc(N(C)C)cc3)C[C@@]21C (stereo partly shown)" result="low binding affinity"
compound=CC(=O)O[C@]1(C(C)=O)CC[C@H]2[C@@H]3CCC4=CC(=O)CCC4=C3[C@@H](c3ccc(N4CCCCC4)cc3)C[C@@]21C result="low binding affinity"
